The origin of these recorded values is patent US4737510A.

Tested on: Bacillus subtilis
Assay: Disc diffusion antimicrobial assay, Bacillus subtilis
Assay type: cell-based
Conditions: Bacillus subtilis; 50 μg/disk, 6.5 mm disc; read-out: diameter of the clear zone of inhibition
Record form. Attribute: zone of inhibition at 50 µg/disc. Fill in for each entry.
Write the answer as a number in mm, unit excluded.

**Query** Param readout= zone of inhibition at 50 µg/disc; system= Bacillus subtilis; entry= Nc1ncc(C2c3nc(N)[nH]c3CC(CNC(=O)c3cc(Br)c[nH]3)C2CNC(=O)c2cc(Br)c[nH]2)[nH]1 (stereo not shown) [Compound 4a, Ageliferin Acetate] ; returns value.
**Result** 15

**Query** Can you handle Nc1ncc(C2c3nc(N)[nH]c3CC(CNC(=O)c3cc(Br)c(Br)[nH]3)C2CNC(=O)c2cc(Br)c(Br)[nH]2)[nH]1 (stereo not shown) [Compound 6a, Dibromoageliferin Acetate] next?
**Result** 9

**Query** Can you handle NC1=NC(=O)C(C2C(CNC(=O)c3cc(Br)c[nH]3)C(CNC(=O)c3cc(Br)c[nH]3)C2c2cnc(N)[nH]2)N1 (stereo not shown) [Compound 8a, Oxysceptrin Acetate] next?
**Result** 14

**Query** Can you handle Nc1ncc([C@@H]2[C@@H](CNC(=O)c3cc(Br)c(Br)[nH]3)[C@H](CNC(=O)c3cc(Br)c(Br)[nH]3)[C@H]2c2cnc(N)[nH]2)[nH]1 (relative stereo) [Compound 3a, Dibromosceptrin Acetate] next?
**Result** 10
